- Measured On: EGFRvIII-Fc fusion antigen (human, UniProt P00533 25-645)
- Assay Text: SPR Biacore T200, EGFRvIII-Fc captured via anti-hu Fc, scFv analyte, 1:1 model;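 note: Multi-cycle kinetics on a CM5 chip in HBS-P+ running buffer, 180 s scFv association then 540 s dissociation, with blank flow cell signals subtracted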
In this section, each of the binders is paired with its reported kon.
The reply should contain only the number, in M⁻¹ s⁻¹.

Example entries and their recorded answers appear below.
scFv 472 (scFv, V domains shown, One-chain scFv, His-tagged) VH: EVQLVQSGAEVKKPGESLKISCKGSGYSFGYYWIGWVRQMPGKGLEWMGIIYPGDSHTRYSPSFQGQVTISADKSISTAYLQWSSLKASDTAMYYCARLGSSWTNDAFDIWGQGTLVTVSS VL: SYELTQPPSVSVSPGQTARITCSGDALPKQYAYWYQQKPGQAPVLVIYKDTERPSGIPERFSGSSSGTTVTLTISGVQAEDEADYYCQSVDSSGTQVVFGGGTKLTVL : 3.8e+06
scFv 469 (scFv, V domains shown, One-chain scFv, His-tagged) VH: EVQLVQSGAEVKKPGESLKISCKGSGYSFNSYWIGWVRQMPGKGLEWMGIIYPGDSDTRYSPSFQGQVTISADKSISTAYLQWSSLKASDTAMYYCARLGSSWTNDAFDIWGQGTLVTVSS VL: SYELTQPPSVSVSPGQTARITCSGDTLPKQYAYWYQQKPGQAPVLVIYKDSERPSGIPERFSGSSSGTTVTLTISGVQAEDEADYYCQSVDVSGTYVVFGGGTKLTVL : 830000
scFv 478 (scFv, V domains shown, One-chain scFv, His-tagged) VH: EVQLVQSGAEVKKPGESLKISCKGSGYSFNSYWIGWVRQMPGKGLEWMGIIYPGDEDTRYSPSFQGQVTISADKSISTAYLQWSSLKASDTAMYYCARLGSSWTNDAFDIWGQGTLVTVSS VL: SYELTQPPSVSVSPGQTARITCSGDALPKQYAYWYQQKPGQAPVLVIYKDTERPSGIPERFSGSSSGTTVTLTISGVQAEDEADYYCQSVDPSGTYVVFGGGTKLTVL : 1.4e+06
scFv 475 (scFv, V domains shown, One-chain scFv, His-tagged) VH: EVQLVQSGAEVKKPGESLKISCKGSGYSFTSYWIGWVRQMPGKGLEWMGIIYPDDSDTRYSPSFQGQVTISADKSISTAYLQWSSLKASDTAMYYCARLGSSWTNDAFDIWGQGTLVTVSS VL: SYELTQPPSVSVSPGQTARITCSGDALPKQYAYWYQQKPGQAPVLVIYKDTERPSGIPERFSGSSSGTTVTLTISGVQAEDEADYYCQSVDSSGTYVVFGGGTKLTVL : 1.2e+06
scFv 473 (scFv, V domains shown, One-chain scFv, His-tagged) VH: EVQLVQSGAEVKKPGESLKISCKGSGYSFSSYWIGWVRQMPGKGLEWMGIIYPGDSDTRYSPSFQGQVTISADKSISTAYLQWSSLKASDTAMYYCARLGSSWTNDAFDIWGQGTLVTVSS VL: SYELTQPPSVSVSPGQTARITCSGHALPSQYAYWYQQKPGQAPVLVIYKDTERPSGIPERFSGSSSGTTVTLTISGVQAEDEADYYCQSVDSSGTSVIFGGGTKLTVL : 1.2e+06
scFv 479 (scFv, V domains shown, One-chain scFv, His-tagged) VH: EVQLVQSGAEVKKPGESLKISCKGSGYDFSSYWIGWVRQMPGKGLEWMGIIYPGDSDTIYSPSFQGQVTISADKSISTAYLQWSSLKASDTAMYYCARLGSSWTNDAFDIWGQGTLVTVSS VL: SYELTQPPSVSVSPGQTARITCSGAALPEQYAYWYQQKPGQAPVLVIYKDSERPSGIPERFSGSSSGTTVTLTISGVQAEDEADYYCQSVDSSGTFYVFGGGTKLTVL : 380000

Now let's try a different one.
# kon (binder: scFv 476 (scFv, V domains shown, One-chain scFv, His-tagged) VH: EVQLVQSGAEVKKPGESLKISCKGSGYSFTSYWIGWVRQMPGKGLEWMGIIYPGDSDTRYSPSFQGQVTISADKSISTAYLQWSSLKASDTAMYYCARLGSSWTNDAFDIWGQGTLVTVSS VL: SYELTQPPSVSVSPGQTARITCSGDNIPHQYAYWYQQKPGQAPVLVIYKDTERPAGIPERFSGSSSGTTVTLTISGVQAEDEADYYCQSADPTGAYLVFGGGTKLTVL ) is 690000
